Substrate: O=C(O)C(=O)CC(O)C(=O)O
Experiment: purified protein
Type: biochemical, Homo sapiens
Details: racemic HOG, 100 mM TRIS pH 8.5, 37°C, aldol cleavage
recorded-metric: Km
Kindly write the number and append the unit.

# input protein: human HOGA (hHOGA) (Homo sapiens; S77V) (protein, His-tag (WT, Y140F) cleavable by PreScission leaving GPH, 33,097 Da tag-free; S77, N78 and S198 mutants as MBP fusion, MBP cleaved; tetramer) ASGEGKKVDIAGIYPPVTTPFTATAEVDYGKLEENLHKLGTFPFRGFVVQGVNGEFPFLTSSERLEVVSRVRQAMPKNRLLLAGSGCESTQATVEMTVSMAQVGADAAMVVTPCYYRGRMSSAALIHHYTKVADLSPIPVVLYSVPANTGLDLPVDAVVTLSQHPNIVGMKDSGGDVTRIGLIVHKTRKQDFQVLAGSAGFLMASYALGAVGGVCALANVLGAQVCQLERLCCTGQWEDAQKLQHRLIEPNAAVTRRFGIPGLKKIMDWFGYYGGPCRAPLQELSPAEEEALRMDFTSNGWL ; wanted: its Km
82 ± 7 µM
